Tested on: Mycobacterium tuberculosis
Assay: Antituberculosis activity against Mycobacterium tuberculosis H37Rv assessed as inhibition of colony formation at 250 ug/ml after 4 weeks of incubation
Format: functional
Settings: 672 h
inhibition at 250 µg/mL values, listed per item
Write the number in % without appending the unit.

compound="Cc1nn(-c2ccccc2)c(Oc2ccccc2F)c1C1CC(c2ccc(F)cc2)=NN1c1ccc(F)cc1 (stereo not drawn)" system_under_test="Mycobacterium tuberculosis" quantity="inhibition at 250 µg/mL" result_number=10
compound="CO[C@H]1/C=C/O[C@@]2(C)Oc3c(C)c(O)c4c(O)c(c(/C=N/N5CCN(C)CC5)c(O)c4c3C2=O)NC(=O)/C(C)=C\\C=C\\[C@H](C)[C@H](O)[C@@H](C)[C@@H](O)[C@@H](C)[C@H](OC(C)=O)[C@@H]1C [RIFAMPIN]" system_under_test="Mycobacterium tuberculosis" quantity="inhibition at 250 µg/mL" result_number=98

# inhibition at 250 µg/mL (compound: Cc1nn(-c2ccccc2)c(Oc2ccccc2F)c1C1CC(c2ccc(F)cc2)=NN1c1ccc(Br)cc1 (stereo not drawn) ) is 94

====

Test system: Bacillus subtilis
Experiment: Antimicrobial activity against Bacillus subtilis MTCC 441 assessed as absence of visible growth after 24 to 48 hrs by broth micro dilution method
Format: functional
MIC values, listed per item
Write the number in µg/mL without appending the unit.

Example cases with answers are listed next.
compound="COc1ccc(N2N=C(c3ccc(F)cc3)CC2c2c(C)nn(-c3ccccc3)c2Oc2ccccc2F)cc1 (stereo not drawn)" system_under_test="Bacillus subtilis" unit=µg/mL result_number=100
compound=O=C(N[C@H](CO)[C@H](O)c1ccc([N+](=O)[O-])cc1)C(Cl)Cl system_under_test="Bacillus subtilis" unit=µg/mL result_number=50
compound="COc1ccc(N2N=C(c3ccc(F)cc3)CC2c2c(C)nn(-c3ccccc3)c2Oc2ccc(F)cc2)cc1 (stereo not drawn)" system_under_test="Bacillus subtilis" unit=µg/mL result_number=62.5
compound="Cc1nn(-c2ccccc2)c(Oc2ccccc2F)c1C1CC(c2ccc(F)cc2)=NN1c1ccc(F)cc1 (stereo not drawn)" system_under_test="Bacillus subtilis" unit=µg/mL result_number=500

# MIC (compound: Cc1nn(-c2ccccc2)c(Oc2ccccc2F)c1C1CC(c2ccc(F)cc2)=NN1c1ccc(Br)cc1 (stereo not drawn) ) is 200

# MIC (compound: `CCn1cc(C(=O)O)c(=O)c2cc(F)c(N3CCNCC3)cc21` ) is 100

# MIC (compound: Cc1nn(-c2ccccc2)c(Oc2cccc(C(F)(F)F)c2)c1C1CC(c2ccc(F)cc2)=NN1c1ccc(Br)cc1 (stereo not drawn) ) is 250

# MIC (compound: Cc1nn(-c2ccccc2)c(Oc2ccc(F)cc2)c1C1CC(c2ccc(F)cc2)=NN1c1ccc(F)cc1 (stereo not drawn) ) is 500

# MIC (compound: Cc1nn(-c2ccccc2)c(Oc2ccc(F)cc2)c1C1CC(c2ccc(F)cc2)=NN1c1ccc(Br)cc1 (stereo not drawn) ) is 500

# MIC (compound: Cc1nn(-c2ccccc2)c(Oc2cccc(F)c2)c1C1CC(c2ccc(F)cc2)=NN1c1ccc(Br)cc1 (stereo not drawn) ) is 250

# MIC (compound: COc1ccc(N2N=C(c3ccc(F)cc3)CC2c2c(C)nn(-c3ccccc3)c2Oc2cccc(F)c2)cc1 (stereo not drawn) ) is 200

# MIC (compound: COc1ccc(N2N=C(c3ccc(F)cc3)CC2c2c(C)nn(-c3ccccc3)c2Oc2cccc(C(F)(F)F)c2)cc1 (stereo not drawn) ) is 100

# MIC (compound: `CC1(C)S[C@@H]2[C@H](NC(=O)[C@H](N)c3ccccc3)C(=O)N2[C@H]1C(=O)O` ) is 250
